# Test system: UO-31 renal
# assay summary: NCI tumour cell line growth inhibition, 48 h
Reported TGI values for a set of compounds

Cc1cc(=O)cc2sc3cc(Cl)ccc3nc1-2 ... 63.1 µM
NC(N)=NS(=O)(=O)c1ccc(Nc2c3ccccc3nc3c(C(=O)N4CCN(CCO)CC4)ccc(Cl)c23)cc1 ... > 100 µM
C=C1C(=O)O[C@H]2[C@H]1CC/C(COC(=O)NCc1c[nH]c3ccc(OC)cc13)=C\CC[C@@]1(C)O[C@@H]21 ... 3.12 µM
COC(=O)C1=C(O)C(C(=O)OC)[C@]2(O)[C@H](C(=O)OC)[C@H]1C[C@@H](c1ccccc1OC)[C@H]2C(=O)OC (some centres undefined) ... 21.6 µM
CCN(CC)C(=O)C1=C(C)NC(C)=C(C(=O)N(CC)CC)C1 ... > 100 µM
CC1=C(C(=O)OCCc2ccc([N+](=O)[O-])cc2)C(c2ccccc2C(F)(F)F)C(C(=O)OC(C)C)=C(C)N1 (centres undefined) ... > 100 µM

Enquiry: Identify TGI associated with the compound "CCOC(=O)[C@H](Cc1ccccc1)NC(=O)c1nc[nH]c1[N+](=O)[O-]"
Return: > 100 µM

Enquiry: Identify TGI associated with the compound "NS(=O)(=O)c1cc(S(N)(=O)=O)c(NC(=O)Nc2ccc(Cl)c(Cl)c2)c(Cl)c1Cl"
Return: > 100 µM

Enquiry: Identify TGI associated with the compound "Cc1cc(C)nc(NC(=S)Nc2cccc(Cl)c2)c1"
Return: > 100 µM

====

# Test system: MDA-MB-435
# assay summary: NCI tumour cell line growth inhibition, 48 h
recorded metric: TGI (µM)
Quick note: give the figure in µM, leave out the unit.

O=C(CSc1nc2ccc(Cl)cc2c(=O)n1-c1ccccc1)N=Nc1c(O)[nH]c2ccc(F)cc12 ... 5.69

Now examine the next entry.
Enquiry: Identify TGI associated with the molecule "CN(C)c1cc2c(cc1Sc1nc3c(N)nccc3n1CCNCC(C)(C)C)OCO2"
Return: 15.4

====

# Tested on: SK-MEL-2 melanoma
# assay summary: NCI tumour cell line growth inhibition, 48 h
recorded metric: TGI

O=C(CSc1nc2ccc(Cl)cc2c(=O)n1-c1ccccc1)N=Nc1c(O)[nH]c2ccc(F)cc12 ... 5.3 µM
COC(=O)c1c(O)ccc2c1c1c(n2Cc2ccccn2)C(=O)c2ccccc2C1 ... > 100 µM
C/C=C1/CN2CCC34C5=CC(=O)C(c6cc7c(cc6OC)N(C)C6=C(C(=O)OC)CC8(CC)CCCN9CCC67C98)=CC5=NC23CCC1C4C(=O)OC (centres undefined) ... 30.6 µM
N#Cc1cc2c(n(C3OC(CO)C(O)C(O)C3O)c1=S)CCCCC2 (centres undefined) ... > 100 µM
CN(C)c1ccc(/C=C2\C[C@H]3[C@@H]4CCC5=CC(=O)CC[C@]5(C)[C@H]4CC[C@]3(C)C2=O)cc1 ... > 100 µM

Now examine the next entry.
Enquiry: Identify TGI associated with the compound "O=C(CC(=O)C(=O)CC(=O)OCc1ccccc1)OCc1ccccc1"
Return: > 100 µM

====

# Tested on: M14 melanoma
# assay summary: NCI tumour cell line growth inhibition, 48 h
Reported TGI values for a set of molecules

COC(=O)C1=C(O)C(C(=O)OC)[C@]2(O)[C@H](C(=O)OC)[C@H]1C[C@@H](c1ccccc1OC)[C@H]2C(=O)OC (some centres not stated) ... 10.2 µM
CCN(CC)/[N+]([O-])=N/OC ... > 100 µM
O=C(/C=C/c1ccccc1Cl)c1ccc(O)cc1 ... 24.6 µM
Nc1ccc(-c2nc3cc(F)ccc3s2)cc1Br ... > 100 µM
O=C(c1ccsc1)c1cc2c(s1)C(=O)c1ccsc1C2=O ... 0.247 µM

Enquiry: Identify TGI associated with the molecule "O=[N+]([O-])c1nccn1CCCN=c1c2ccccc2n(O)c2ccccc12"
Return: > 100 µM

Enquiry: Identify TGI associated with the molecule "CCCCCCCCCCCCCCCCc1c(C(=O)OC)[nH]c(=S)[nH]c1=O"
Return: > 50 µM

Enquiry: Identify TGI associated with the molecule "CC(=O)Oc1ccn2nc(C)c(Cc3c(C)nn4ccc(OC(C)=O)cc34)c2c1"
Return: > 100 µM

Enquiry: Identify TGI associated with the molecule COC(OC)C1(c2ccccc2)Oc2ccccc2C1=O (configuration not stated)
Return: > 100 µM

Enquiry: Identify TGI associated with the molecule COC(=O)C(C(=O)C(=O)Nc1c(Cl)cc([N+](=O)[O-])cc1Cl)c1nc2cc(C)c(C)cc2[nH]c1=O (configuration not stated)
Return: > 100 µM

Enquiry: Identify TGI associated with the molecule "Oc1c(Cl)ccc2cccnc12"
Return: > 100 µM

Enquiry: Identify TGI associated with the molecule "CSc1sc(C)cc1-c1nsc(=O)o1"
Return: > 100 µM

Enquiry: Identify TGI associated with the molecule "COc1ccc(NC(=O)CSc2nnc(Cc3ccccc3)o2)cc1"
Return: > 100 µM

Enquiry: Identify TGI associated with the molecule O=C1CCCCC1C1(O)C(=O)Nc2cc(F)ccc21 (configuration not stated)
Return: > 100 µM

Enquiry: Identify TGI associated with the molecule "Cc1cc(=O)[nH]c(CNC(=O)c2cccc3ccccc23)n1"
Return: > 100 µM

Enquiry: Identify TGI associated with the molecule "CCc1ccc(/C(C#N)=C/C=C/c2ccccc2)cc1"
Return: > 100 µM

Enquiry: Identify TGI associated with the molecule C/C=C/C=C/C1=NN(c2cccc(S(=O)(=O)O)c2)C2(C1)C(Cl)C(=O)N2c1nc2ccccc2s1 (configuration not stated)
Return: 29.4 µM

Enquiry: Identify TGI associated with the molecule "CCOC(=O)NC(=O)c1cn(CCCCCCCCCCC(=O)N2CCN(CCn3cc(C(=O)NC(=O)OCC)c(=O)[nH]c3=O)CC2)c(=O)[nH]c1=O"
Return: > 100 µM

Enquiry: Identify TGI associated with the molecule "COc1cc(O)c2c(=O)c3ccccc3n(C)c2c1"
Return: > 100 µM

====

# System: TK-10 renal
# assay summary: NCI tumour cell line growth inhibition, 48 h
recorded metric: TGI (µM)
Quick note: give the figure in µM, leave out the unit.

CC(C)(C)C1CCC2c3c([nH]c4ccccc34)C3C(=O)N(c4cccc(Cl)c4)C(=O)C3C2C1 (stereo unspecified) ... 39

Enquiry: Identify TGI associated with the molecule CC(Br)C(=O)c1ccc2cc(Br)c3ccccc3c2c1 (stereo unspecified)
Return: 33.1

Enquiry: Identify TGI associated with the molecule "CCCCCCCCCCCCCCCCCC(=O)[O][Sn]([CH2]CCC)([CH2]CCC)[CH2]CCC"
Return: 0.311

====

# Tested on: U251 CNS
# assay summary: NCI tumour cell line growth inhibition, 48 h
recorded metric: TGI

Known results for compounds:
Fc1cc(C2=C[C@H](c3ccc4c(c3)OCO4)NC(=S)N2)c(Cl)cc1Cl ... > 100 µM
C=CC1(c2ccc(Cl)c(Cl)c2)OCCO1 ... > 100 µM
CN(C)c1cc2c(Nc3ccc4nc(Cc5ccccc5)[nH]c4c3)ncnc2cn1 ... > 25 µM
CC1=C(C)C(=O)c2c(cc3c4ccccc4ccn23)C1=O ... > 100 µM
S=C1CNC(=S)CN1 ... > 100 µM

Enquiry: Give TGI for COC(=O)C1C2CC3C(OC(=O)C31)C2I (stereo not drawn) tested on U251 CNS.
Return: > 100 µM

Enquiry: Give TGI for "O=[n+]1cnn([O-])c2ccccc21" tested on U251 CNS.
Return: > 100 µM

Enquiry: Give TGI for "CCOC(=O)c1c(NS(=O)(=O)c2ccc(Br)cc2)sc2c1CCCC2" tested on U251 CNS.
Return: 25.4 µM

Enquiry: Give TGI for "CNC(=O)c1cc(Oc2ccc3nc(NC(=O)c4cc(C(F)(F)F)cc(C(F)(F)F)c4)sc3c2)ccn1" tested on U251 CNS.
Return: 13.7 µM

Enquiry: Give TGI for "COc1ccc(-c2cn3c(nc4ccccc43)c(C)n2)cc1" tested on U251 CNS.
Return: > 100 µM

Enquiry: Give TGI for CCN(CC)CC(O)CNc1ccc(NCC(O)CCl)c2c1C(=O)c1ccccc1C2=O (stereo not drawn) tested on U251 CNS.
Return: 28 µM

Enquiry: Give TGI for "COc1cc(/C=C2\N=C(c3ccccc3)N(c3nc4c(Cl)cc(Cl)cc4s3)C2=O)ccc1O" tested on U251 CNS.
Return: 75.4 µM

Enquiry: Give TGI for "O=C(CN1CCOCC1)c1ccc2[nH]c(=O)oc2c1" tested on U251 CNS.
Return: > 100 µM

Enquiry: Give TGI for "O=C(c1ccc(F)c(F)c1Nc1ccc(I)cc1F)N1CC(O)([C@H]2CCCCN2)C1" tested on U251 CNS.
Return: 18.9 µM

Enquiry: Give TGI for "Nc1ccc(S(=O)(=O)Nc2nc3ccccc3nc2Nc2ccc(S(N)(=O)=O)cc2)cc1" tested on U251 CNS.
Return: > 100 µM

Data provenance: PubChem BioAssay (NCI)
